Tested on: NCI-H226
assay-procedure: NCI tumour cell line growth inhibition, 48 h
The source made the active and inactive calls. Rule as the data show it: active = GI50 up to about 1.1 µM and inactive = higher.
measured-quantity: GI50

Answered cases to consult:
| compound | GI50 |
| --- | --- |
| NC(Cc1ccnnc1)C(=O)O (configuration not stated) | > 100 µM (inactive) |
| N#Cc1cccnc1Cl | > 100 µM (inactive) |
| NC(C(=O)O)c1ccc(C(=O)O)cc1 (configuration not stated) | > 100 µM (inactive) |
| C#CCN(Cc1ccc2nc(-c3ccccc3)c(Cl)nc2c1)c1cc(OC)c(OC)c(OC)c1 | > 100 µM (inactive) |

Lookup result for CN1CN(c2ccccc2)C2(CCN(CCCC(=O)c3cccs3)CC2)C1=O ; measured GI50: 34.5 µM (inactive)

Lookup result for COC(=O)/C1=C/C=C\C[C@@]2(C)CC(c3ccoc3)OC(=O)[C@@H]2CC[C@H]1C (some centres not stated) ; measured GI50: > 25 µM (inactive)

Lookup result for CCCOP1(=O)C=C(O)C(Cl)=C(C)C1 (configuration not stated) ; measured GI50: > 100 µM (inactive)

====

System: SR
assay-procedure: NCI tumour cell line growth inhibition, 48 h
The source made the active and inactive calls. Cut-off read from the data, not from the text of the source: active = GI50 up to about 1.1 µM and inactive = higher.
measured-quantity: GI50

| compound | measured-quantity | endpoint-result |
| --- | --- | --- |
| Nc1ncc(/C=N/O)c(NCC2(CO)CC(CCc3ccccc3)C2)n1 (stereo not drawn) | GI50 | 4.36 µM (inactive) |
| O=C1NC2(CCCCC2)C2CCCCC(O)C12 (stereo not drawn) | GI50 | > 100 µM (inactive) |
| NC(Cc1ccnnc1)C(=O)O (stereo not drawn) | GI50 | > 100 µM (inactive) |
| O=C1/C(=C/c2ccc(Oc3ccccc3)cc2)N=C(c2ccccc2)N1c1ccc(S(=O)(=O)Nc2nccs2)cc1 | GI50 | 2.65 µM (inactive) |

Lookup result for N#Cc1cccnc1Cl ; measured GI50: > 100 µM (inactive)

Lookup result for C1CN2N3CCCC23C1 (stereo not drawn) ; measured GI50: > 100 µM (inactive)

====

System: HL-60
assay-procedure: NCI tumour cell line growth inhibition, 48 h
The source made the active and inactive calls. Cut-off read from the data, not from the text of the source: active = GI50 up to about 1.1 µM and inactive = higher.
measured-quantity: GI50

Answered cases to consult:
| molecule | measured-quantity | endpoint-result |
| --- | --- | --- |
| COP(C)(=O)/C(Cc1ccccc1)=N\O (stereo not given) | GI50 | > 100 µM (inactive) |
| COc1ccc(C2S/C(=C\c3ccccc3O)C(=O)N2NC(=O)Cc2ccccc2)cc1 (stereo not given) | GI50 | 60.5 µM (inactive) |
| CCCOC1OC(CS(=O)(=O)O)C(O)C(O)C1O (stereo not given) | GI50 | > 100 µM (inactive) |
| CCCOP1(=O)C=C(O)C(Cl)=C(C)C1 (stereo not given) | GI50 | > 100 µM (inactive) |
| CN(C)Cc1cc(/N=N/c2ccc(Cl)cc2)ccc1OC(=O)c1ccccc1 | GI50 | 13.5 µM (inactive) |
| COc1ccc(N(C)C(=O)N(C)c2ccc([N+](=O)[O-])cc2)cc1 | GI50 | 31 µM (inactive) |

// next entry
Lookup result for C[C@@]1(Cc2ccccc2)C(=O)N2[C@@H](CO)C(c3ccccc3)O[C@]2(C)c2ccccc21 (stereo not given in full) ; measured GI50: > 100 µM (inactive)

====

System: PC-3
assay-procedure: NCI tumour cell line growth inhibition, 48 h
The source made the active and inactive calls. No stated cut-off is given here; in the data, active = GI50 up to about 1.1 µM and inactive = higher.
Some molecules, each annotated with its measured GI50.

| molecule | GI50 |
| --- | --- |
| O=C(N/N=C1\C(=O)Nc2ccc(Br)cc21)/C(O)=C/C(=O)c1ccc(Cl)cc1 | 77.1 µM (inactive) |
| C(=C\Nc1ccc(Oc2ccccc2)cc1)/C=N/c1ccc(Oc2ccccc2)cc1 | 15.1 µM (inactive) |
| COc1cc(CO)c(CC(=O)NCCCc2ccccc2)cc1OC | > 100 µM (inactive) |

Lookup result for Cn1c(-c2cccc([N+](=O)[O-])c2)[n+](C)c2ccccc21 ; measured GI50: 46.8 µM (inactive)

====

Tested on: K562
assay-procedure: NCI tumour cell line growth inhibition, 48 h
The source made the active and inactive calls. Rule as the data show it: active = GI50 up to about 1.1 µM and inactive = higher.
Tick one outcome: active, inactive

Record excerpt, results attached:
| compound | class-assignment |
| --- | --- |
| CC(C)C(=O)/C=C/c1ccc(Br)cc1 | inactive |
| CC1=NC(=O)C(C)(c2ccccc2)N1CCc1ccccc1 (stereo not given) | inactive |
| Nc1ccc(C23CC4CC(C2)CC(c2ccc(N)cc2)(C4)C3)cc1 | inactive |
| O=[N+]([O-])c1cccc2c(/N=N/c3ccc4ccccc4c3O)c(O)cc(S(=O)(=O)O)c12 | inactive |
| CC[C@H]1C=CCC[C@@]2(C[C@@H]3CC[C@@H]4[C@H](C(=O)OCCCCCCCCCCCCCCCC(=O)N(CCCN)CCCCN)[C@]5(CCC[C@@H](C)O5)NC(=[N+]34)N2)O1 | active |
| COP(C)(=O)/C(Cc1ccccc1)=N\O (stereo not given) | inactive |

State the result this test recorded for Cc1ccc2nc3ccccc3c(C3C4C(=O)N(c5ccc(F)cc5)C(=O)C4ON3C(C(N)=O)c3ccccc3)c2c1 (stereo not given) .
inactive

State the result this test recorded for COc1ccc2c(OC)c3ccoc3nc2c1O .
inactive

====

Some compounds, each annotated with its measured GI50.
System: HOP-92
assay-procedure: NCI tumour cell line growth inhibition, 48 h
Activity calls are given as the source filed them. No stated cut-off is given here; in the data, active = GI50 up to about 1.1 µM and inactive = higher.

Answered cases to consult:
| compound | endpoint-result |
| --- | --- |
| CN1CCN(c2cc3[nH]c(-c4ccc(Cl)cc4)nc3cc2F)CC1 | 25.4 µM (inactive) |
| O=[PH](O)c1ccccn1 | > 100 µM (inactive) |
| CNc1ccc2c(c1)[C@@]1(C)c3ccccc3[C@@H](C2)N1C | 27.1 µM (inactive) |
| CC(C)(C)OC(=O)NC(Cc1ccc(OCc2ccccc2)cc1)C(=O)NC(COCc1ccccc1)C(=O)Oc1c(Cl)c(Cl)c(Cl)c(Cl)c1Cl (stereo not given) | 13.8 µM (inactive) |
| O=C(CC1=Nc2nnc(-c3nnc4n3C(=O)C(CC(=O)C3CC3)=N4)n2C1=O)C1CC1 | > 100 µM (inactive) |

Lookup result for COP(C)(=O)/C(Cc1ccccc1)=N\O (stereo not given) ; measured GI50: > 100 µM (inactive)

Lookup result for CCOC(=O)c1csc(NC(=O)CCN2CCCCC2)n1 ; measured GI50: > 100 µM (inactive)

Lookup result for Nc1ncc(/C=N/O)c(NCC2(CO)CC(CCc3ccccc3)C2)n1 (stereo not given) ; measured GI50: 12.4 µM (inactive)

Lookup result for COC(=O)/C1=C/C=C\C[C@@]2(C)CC(c3ccoc3)OC(=O)[C@@H]2CC[C@H]1C (stereo not given in full) ; measured GI50: > 25 µM (inactive)

Lookup result for COc1c(Br)cc(Br)c(OC)c1-c1[nH]c(Br)c(Br)c1Br ; measured GI50: 1.82 µM (inactive)

====

System: DMS-114
assay-procedure: NCI tumour cell line growth inhibition, 48 h
The source made the active and inactive calls. Rule as the data show it: active = GI50 up to about 1.1 µM and inactive = higher.
Tick one outcome: 1.0 (active), 0.0 (inactive)

Record excerpt, results attached:
| compound | class-assignment |
| --- | --- |
| CCOC(=O)c1oc2c(OC)ccc3c2c1CCC3 | 0.0 |
| CN(C)CC1CCCC1=O (stereo not drawn) | 1.0 |
| Cc1cc(NS(=O)(=O)c2ccc(Nc3c4ccccc4nc4c(C(=O)N5CCN(CCOS(C)(=O)=O)CC5)cccc34)cc2)no1 | 0.0 |
| COc1ccc(C2NC3=C(CCCC3)N2)cc1 | 0.0 |
| CCOC(=O)/C(=C/c1ccc[nH]1)P(=O)(OCC)OCC | 0.0 |
| CN(C)CCNc1ccc2nnn3c4ccccc4c(=O)c1c23 | 0.0 |
| CCOc1ccc(NC(=O)C(=O)CC(=O)c2c(C)[n+]([O-])c3ccccc3[n+]2[O-])cc1 | 0.0 |
| CCOC(=O)C1S/C(=N\c2ccccc2)N=C1C (stereo not drawn) | 0.0 |

State the result this test recorded for NCCn1ccc(NC(c2ccccc2)(c2ccccc2)c2ccccc2)nc1=O .
0.0

State the result this test recorded for COc1ccc(/N=C\c2cc(OC)c(OC)c(OC)c2)cc1 .
0.0

State the result this test recorded for C1CN2N3CCCC23C1 (stereo not drawn) .
0.0

State the result this test recorded for O=C(OCc1ccccc1)N1N=NC2C3CC(OCc4ccccc4)(OCc4ccccc4)C(O3)C21 (stereo not drawn) .
0.0

State the result this test recorded for CSC(=N)N1N=C2/C(=C/c3ccccc3)CCC[C@H]2[C@H]1c1ccccc1 .
0.0

State the result this test recorded for Cc1ccc2nc(NC(=O)C(=O)C(C#N)c3ccc(Cl)cc3)sc2c1 (stereo not drawn) .
0.0

State the result this test recorded for CCOC(=O)c1cccnc1C(OC(C)=O)OC(C)=O .
0.0

State the result this test recorded for CCOc1ccc(-c2oc(/C=N/NS(=O)(=O)c3ccc(C)cc3)c([N+](=O)[O-])c2-c2ccc(OCC)cc2)cc1 .
0.0

State the result this test recorded for CC(C)C(=O)/C=C/c1ccc(Br)cc1 .
0.0
